- System: BT-549 breast
- Experiment summary: NCI-60 one-dose screen, 48 h
- Condition description: 10 µM unless noted
Compounds without any hit were thinned out: in the full panel of roughly 83,000, 20% have a hit. Activity calls are given as the source filed them. The calls were made as follows: active = growth percent below 10; inactive = the rest.
Your answer must be one of the following: 1 (yes) (active), 0 (no) (inactive)

Q: Recorded call for `O=C(NCCO)c1cccnc1` ?
A: 0 (no)

Q: What classification did `CC(=O)n1cc(C=O)c2ccccc21` end up with in this test?
A: 0 (no)

Q: What did this assay record as the result for CCN(CC)c1ccc2cc(NC(=O)OCCNC(=O)CCNC(=O)[C@H](CC(C)C)NC(=O)C(C)(C)NC(=O)C(C)(C)NC(=O)[C@H](CC(C)C)NC(=O)CCNC(=O)C(C)(C)NC(=O)[C@H](CC(C)C)NC(=O)CCNC(=O)[C@@](C)(CC)NC(=O)[C@H](C)NC(=O)CCNC(=O)C(C)(C)NC(=O)[C@H](C)NC(=O)[C@@H]3CCCN3C(=O)[C@@](C)(CC)NC(=O)[C@H](Cc3ccccc3)NC(=O)C3CCCN3C(=O)C(C)(C)NC(=O)C3CCCN3C(=O)C(C)(C)NC(C)=O)c(=O)oc2c1 (some centres undefined) ?
A: 1 (yes)

Q: Called result for `CC(C)C1=NOC(=O)C1=Cc1cn(-c2ccccc2)nc1-c1ccc(Br)cc1`
A: 0 (no)

====

- System: UACC-257 melanoma
- Experiment summary: NCI-60 one-dose screen, 48 h
- Condition description: 10 µM unless noted
About 83,000 compounds went through this panel and 20% of them were active in at least one assay; those are over-represented in the sample as a whole. The source made the active and inactive calls. Rule for the calls: active = growth percent below 10; inactive = the rest.
Give one outcome, nothing more. List: TRUE = active, FALSE = inactive

Q: Assay result, entry `COc1cc(NCc2cn(-c3ccc(C(=O)O)cc3)nc2-c2ccc(C(=O)O)cc2)cc(OC)c1OC` — outcome?
A: FALSE

Continuing:
Q: // return assay outcome for `CC1(C)CC[C@]23CC[C@]4(C)[C@H](CC[C@@H]5[C@@]6(C)C/C(=C/c7ccncc7)C(=O)C(C)(C)[C@@H]6CC[C@]54C)[C@H]2[C@H]1OC3=O`
A: FALSE

Q: Call for entry `CC(=O)O.CC(=O)O.O.[Fe]` :
A: FALSE

Q: Please indicate how the test categorized `COc1cc(NN=C(c2ccc(O)cc2)c2ccc(O)cc2)c([N+](=O)[O-])cc1[N+](=O)[O-]` .
A: TRUE

Q: Short answer needed: outcome of this test for `COc1ncc(-c2ccc3nccc(C#CCCCCC(=O)NO)c3c2)cc1NS(=O)(=O)c1ccc(F)cc1F` ?
A: TRUE

Q: Tell me the recorded outcome of this test for `COc1ccc(-c2ccc(NNC(=O)c3ccc(F)cc3)nn2)cc1OC` .
A: FALSE

Q: I would be grateful if you could indicate the recorded call for O=C1/C(=C\c2cn(CC(O)CN3CCCCC3)c3ccccc23)c2ccccc2N1c1c(Cl)cccc1Cl (stereo not drawn) .
A: TRUE

Q: What was the test verdict on `O=C(NCc1ccc(Cn2c(=O)sn(-c3ccccc3)c2=O)cc1)OCc1ccc2c(Br)cc(Br)c(O)c2n1` ?
A: TRUE

====

- Tested on: HCT-15 colon
- Experiment summary: NCI-60 one-dose screen, 48 h
- Condition description: 10 µM unless noted
This is part of a sample that, as a whole, favours compounds with a hit. Of some 83,000 tested, about 20% had one in any assay. Active and inactive are the calls of the source. The calls were made as follows: active = growth percent below 10; inactive = the rest.
Pick from active, inactive when you respond.

Q: Hi, sorry to bother you, what did the test record for `Nc1cc(N)c(N=Nc2ccc(S(=O)(=O)O)cc2)cc1N=Nc1ccc(-c2ccc(N=Nc3ccc(O)c(C(=O)O)c3)cc2)cc1` ?
A: inactive

Next:
Q: Please share the test call associated with `[2H]C1([2H])CCN(C(=O)C2CC2)c2cc(NS(=O)(=O)c3ccc(-c4cccc(C(N)=O)c4)cc3)ccc21` .
A: inactive

Q: For `CCOC(=O)c1c[nH]c2cc(OCC3CC3)c(OCC3CC3)cc2c1=O` , which call appears in the assay record?
A: inactive

Where do these numbers come from? They come from PubChem BioAssay (NCI).
